# TARGET: UniProt:P35869
# EXPERIMENT: AHR antagonist reporter assay in human cell line (INDIGO AhR Reporter Assay System, kynurenic acid activated)
# MEASUREMENT_CONTEXT: 200 μM kynurenic acid, 24 hours, luciferase; read-out: AhR Reporter Assay KA Antagonist Mode: IC50
RECORDED_METRIC: IC50

// below: answered compounds
[
  {
    "COMPOUND": "COC[C@H](C)NC(=O)c1cc(-c2ccc(F)c(Cl)c2)nn(-c2cnn(C)c2)c1=O",
    "IC50": "> 400 nM"
  },
  {
    "COMPOUND": "COC[C@H](C)NC(=O)c1cc(N2C(=O)C(C)(C)c3ccccc32)nn(-c2cnn(C)c2)c1=O",
    "IC50": "> 400 nM"
  },
  {
    "COMPOUND": "C[C@@H](CO)NC(=O)c1cc(-c2cnc(-c3ccc(F)cc3)nc2)nn(-c2cnn(C)c2)c1=O",
    "IC50": "< 100 nM"
  },
  {
    "COMPOUND": "COC[C@H](C)NC(=O)c1cc(N2CCC(C)(C)CC2)nn(-c2cnn(C)c2)c1=O",
    "IC50": "> 400 nM"
  },
  {
    "COMPOUND": "CCc1ccc(-c2cc(C(=O)N[C@@H](C)CO)c(=O)n(-c3cnn(C)c3)n2)cc1",
    "IC50": "< 100 nM"
  },
  {
    "COMPOUND": "CNC(=O)[C@H](C)NC(=O)c1cc(-c2ccc(C(F)(F)F)cc2)nn(-c2cnn(C)c2)c1=O",
    "IC50": "< 100 nM"
  }
]

Looking up `CN(CCO)C(=O)c1cc(-c2ccc(Cl)cc2)nn(-c2cccc(F)c2)c1=O` , I found its IC50 recorded as > 400 nM

Looking up `C[C@@H](CO)NC(=O)c1cc(-c2ccc(-c3ccc(F)cc3)nc2)nn(-c2cnn(C)c2)c1=O` , I found its IC50 recorded as < 100 nM

###

# TARGET: Human Aryl Hydrocarbon Receptor (AhR) (Homo sapiens)
# EXPERIMENT: AHR antagonist reporter assay in human cell line (INDIGO AhR Reporter Assay System, kynurenic acid activated)
# MEASUREMENT_CONTEXT: 200 μM kynurenic acid, 24 hours, luciferase; read-out: AhR Reporter Assay KA Antagonist Mode: IC50
RECORDED_METRIC: IC50

// below: answered molecules
[
  {
    "MOLECULE": "COC[C@H](C)NC(=O)c1cc(-c2ccc3cccnc3c2F)nn(-c2cnn(C)c2)c1=O [Compound 130]",
    "IC50": "100 to 400 nM"
  },
  {
    "MOLECULE": "COC[C@H](C)NC(=O)c1cc(N2CCC(C)CC2)nn(-c2cnn(C)c2)c1=O [Compound 114]",
    "IC50": "> 400 nM"
  }
]

Looking up COC[C@H](C)NC(=O)c1cc(-c2ccc3c(c2)OCCO3)nn(-c2cnn(C)c2)c1=O [Compound 128] , I found its IC50 recorded as > 400 nM

Looking up NCCNC(=O)c1cc(-c2ccc(Cl)cc2)nn(-c2cccc(F)c2)c1=O [Compound 17] , I found its IC50 recorded as > 400 nM

Looking up CC(C)c1ccc(-c2cc(C(=O)N[C@@H](C)CO)c(=O)n(-c3cnn(C)c3)n2)cc1 [Compound 202] , I found its IC50 recorded as < 100 nM

Looking up C[C@@H](CO)NC(=O)c1cc(-c2ccc(-c3ccccc3F)nc2)nn(-c2cnn(C)c2)c1=O [Compound 192] , I found its IC50 recorded as < 100 nM

###

# TARGET: Human Aryl Hydrocarbon Receptor (AhR) (Homo sapiens)
# EXPERIMENT: AHR antagonist reporter assay in human cell line (INDIGO AhR Reporter Assay System, kynurenic acid activated)
# MEASUREMENT_CONTEXT: 200 μM kynurenic acid, 24 hours, luciferase; read-out: AhR Reporter Assay KA Antagonist Mode: IC50
RECORDED_METRIC: IC50

// below: answered molecules
[
  {
    "MOLECULE": "CNCCNC(=O)c1cc(-c2ccc(Cl)cc2)nn(-c2cccc(F)c2)c1=O [Compound 18]",
    "MEASURED_VALUE": "> 400 nM"
  },
  {
    "MOLECULE": "COC[C@H](C)NC(=O)c1cc(-c2ccc(C(C)C)cc2)nn(-c2cnn(C)c2)c1=O [Compound 206]",
    "MEASURED_VALUE": "< 100 nM"
  }
]

Looking up COC[C@H](C)NC(=O)c1cc(-c2cc3ccccc3cn2)nn(-c2cnn(C)c2)c1=O [Compound 153] , I found its IC50 recorded as < 100 nM

Looking up CN(CCN)C(=O)c1cc(-c2ccc(Cl)cc2)nn(-c2cccc(F)c2)c1=O [Compound 23] , I found its IC50 recorded as > 400 nM

Looking up C[C@@H](CO)NC(=O)c1cc(-c2ccc(C3CCOCC3)cc2)nn(-c2cnn(C)c2)c1=O [Compound 197] , I found its IC50 recorded as 100 to 400 nM

###

# TARGET: Human Aryl Hydrocarbon Receptor (AhR) (Homo sapiens)
# EXPERIMENT: AHR antagonist reporter assay in human cell line (INDIGO AhR Reporter Assay System, kynurenic acid activated)
# MEASUREMENT_CONTEXT: 200 μM kynurenic acid, 24 hours, luciferase; read-out: AhR Reporter Assay KA Antagonist Mode: IC50
RECORDED_METRIC: IC50

[
  {
    "COMPOUND": "CNC(=O)C(C)(C)NC(=O)c1cc(-c2ccc(Cl)cc2)nn(-c2cccc(F)c2)c1=O",
    "IC50": "< 100 nM"
  },
  {
    "COMPOUND": "CC(=O)N(C)CC(C)NC(=O)c1cc(-c2ccc(Cl)cc2)nn(-c2cccc(F)c2)c1=O (stereo not shown)",
    "IC50": "> 400 nM"
  },
  {
    "COMPOUND": "COC[C@H](C)NC(=O)c1cc(N2CC3(CCCC3)C2)nn(-c2cnn(C)c2)c1=O",
    "IC50": "> 400 nM"
  },
  {
    "COMPOUND": "CNC(=O)[C@H](C)NC(=O)c1cc(-c2cnc(-c3ccc(Cl)cc3)nc2)nn(-c2cnn(C)c2)c1=O",
    "IC50": "< 100 nM"
  },
  {
    "COMPOUND": "CNCC(C)NC(=O)c1cc(-c2ccc(Cl)cc2)nn(-c2cccc(F)c2)c1=O (stereo not shown)",
    "IC50": "> 400 nM"
  }
]

Note to self: IC50 of `CNC(=O)[C@H](C)NC(=O)c1cc(-c2ccc(OC(F)(F)F)cc2)nn(-c2cnn(C)c2)c1=O` with Human Aryl Hydrocarbon Receptor (AhR) (Homo sapiens) was < 100 nM

Note to self: IC50 of `COC[C@H](C)NC(=O)c1cc(-c2ccc3cc(OC)ccc3c2)nn(-c2cnn(C)c2)c1=O` with Human Aryl Hydrocarbon Receptor (AhR) (Homo sapiens) was < 100 nM

###

pIC50 listing for selected compounds.
# TARGET: Human Aryl Hydrocarbon Receptor (AhR) (Homo sapiens, UniProt P35869)
# Sequence (P35869 11-848): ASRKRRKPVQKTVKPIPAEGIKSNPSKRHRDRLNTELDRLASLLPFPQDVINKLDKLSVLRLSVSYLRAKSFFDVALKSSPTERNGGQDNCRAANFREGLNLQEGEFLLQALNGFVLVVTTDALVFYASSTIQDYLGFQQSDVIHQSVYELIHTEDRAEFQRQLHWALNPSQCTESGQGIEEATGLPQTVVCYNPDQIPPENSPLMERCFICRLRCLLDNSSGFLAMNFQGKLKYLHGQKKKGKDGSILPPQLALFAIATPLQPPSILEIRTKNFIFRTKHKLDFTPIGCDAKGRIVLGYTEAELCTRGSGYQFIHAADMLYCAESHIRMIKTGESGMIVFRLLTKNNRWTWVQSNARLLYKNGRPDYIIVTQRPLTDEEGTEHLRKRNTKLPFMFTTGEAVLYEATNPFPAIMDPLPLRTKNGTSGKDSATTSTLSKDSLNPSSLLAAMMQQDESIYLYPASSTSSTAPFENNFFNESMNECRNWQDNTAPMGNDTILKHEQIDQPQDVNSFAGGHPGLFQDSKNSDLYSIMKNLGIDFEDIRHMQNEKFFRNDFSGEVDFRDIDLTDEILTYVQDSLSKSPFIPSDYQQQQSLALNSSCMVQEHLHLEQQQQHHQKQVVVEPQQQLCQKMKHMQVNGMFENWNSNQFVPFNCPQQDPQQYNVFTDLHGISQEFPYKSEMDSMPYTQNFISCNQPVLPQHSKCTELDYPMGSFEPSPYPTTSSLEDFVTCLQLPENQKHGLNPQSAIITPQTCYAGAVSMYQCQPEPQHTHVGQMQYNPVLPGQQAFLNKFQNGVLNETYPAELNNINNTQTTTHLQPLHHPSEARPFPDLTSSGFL
# EXPERIMENT: AHR antagonist reporter assay in human cell line (INDIGO AhR Reporter Assay System, kynurenic acid activated)
# MEASUREMENT_CONTEXT: 200 μM kynurenic acid, 24 hours, luciferase; read-out: AhR Reporter Assay KA Antagonist Mode: IC50
pIC50: −log10 of the molar value.

// below: answered compounds
[
  {
    "COMPOUND": "COCCNC(=O)c1cc(-c2ccc(Cl)cc2)nn(-c2cccc(F)c2)c1=O",
    "pIC50": "< 6.40"
  },
  {
    "COMPOUND": "CNC(=O)c1cc(-c2ccc(Cl)cc2)nn(-c2cccc(F)c2)c1=O",
    "pIC50": "< 6.40"
  },
  {
    "COMPOUND": "C[C@@H](CO)NC(=O)c1cc(-c2cnc(-c3cccc(F)c3)nc2)nn(-c2cnn(C)c2)c1=O",
    "pIC50": "> 7.00"
  },
  {
    "COMPOUND": "COC[C@H](C)NC(=O)c1cc(-n2ccc(C3CC3)n2)nn(-c2cnn(C)c2)c1=O",
    "pIC50": "< 6.40"
  },
  {
    "COMPOUND": "COCC(C)NC(=O)c1cc(-c2ccc(Cl)cc2)nn(-c2cnn(C)c2)c1=O (centres unmarked)",
    "pIC50": "> 7.00"
  },
  {
    "COMPOUND": "COC[C@H](C)NC(=O)c1cc(-c2ccc(N(C)C)nc2)nn(-c2cnn(C)c2)c1=O",
    "pIC50": "< 6.40"
  }
]

Looking up `CN(C)C(=O)CNC(=O)c1cc(-c2ccc(Cl)cc2)nn(-c2cnn(C)c2)c1=O` , I found its pIC50 recorded as < 6.40

Looking up `COC[C@H](C)NC(=O)c1cc(-c2ccc3cc(F)ccc3c2)nn(-c2cnn(C)c2)c1=O` , I found its pIC50 recorded as > 7.00
